Values compiled from patent US20220387457A1.

# ASSAY DETAILS: Plasma pharmacokinetics of CKLP1 and levcromakalim after topical dosing in hound dogs
# Format: in vivo, hound dog
# CONDITION PARAMETERS: hound, dog, plasma, topical or ocular, 10 mM
PARAMETER MEASURED: AUC (ng·h/mL)

MOLECULE: CC1(C)Oc2ccc(C#N)cc2[C@@H](N2CCCC2=O)[C@@H]1O [Levcromakalim, levcromakalim, reference compound]
PARAMETER MEASURED: AUC
UNIT: ng·h/mL
RESULT NUMBER: 3.88

---

# ASSAY DETAILS: Toxicokinetics after escalating intravenous doses of CKLP1 in beagles
# Type: in vivo, beagle dog
# CONDITION PARAMETERS: female, beagle, dog, in vivo, iv, 0.5 mg/kg
PARAMETER MEASURED: AUC(0-inf) (ng·h/mL)

COMPOUND: CC1(C)Oc2ccc(C#N)cc2[C@@H](N2CCCC2=O)[C@@H]1OP(=O)(O)O [CKLP1]
UNIT: ng·h/mL
RESULT NUMBER: 21200
